Test system: SNB-75 CNS
assay_info: NCI tumour cell line growth inhibition, 48 h
Provide the recorded TGI for the entries that follow.

Inquiry: Look up TGI for this molecule: O=C(N/N=C/c1ccc(Cl)cc1Cl)c1ccc2nc(-c3ccc(Cl)cc3)[nH]c2c1
Reply text: 3.62 µM

Inquiry: Look up TGI for this molecule: Cc1c(-c2nnc(-c3ccccc3)o2)c(=O)n(-c2ccccc2)n1C
Reply text: > 100 µM

Inquiry: Look up TGI for this molecule: CN(C)CCSCCO
Reply text: > 100 µM

Inquiry: Look up TGI for this molecule: CCOC(=O)C1=C(Nc2ccc(Br)cc2)OC/C1=N\NC(=O)c1ccccc1O
Reply text: > 48.3 µM

====

System: MDA-MB-435
Can you answer with just one of these options? active, inactive

Inquiry: Recorded call for CNC1=C(C(=O)OC)SC(c2ccccc2)(c2ccccc2)SC1 ?
Reply text: inactive

Inquiry: Recorded call for NC(=O)c1ccccc1NC(=O)c1ccccc1Cl ?
Reply text: inactive

Inquiry: Recorded call for O=C1c2ccccc2-c2c1c1ccc([N+](=O)[O-])cc1c(=O)n2CCCNCCO ?
Reply text: inactive

Inquiry: Recorded call for C=C(CNC(=O)c1ccccc1)c1ccc(C(=O)Nc2ccccc2N)cc1 ?
Reply text: inactive

Inquiry: Recorded call for COc1ccc(Cn2cc3c(c2-c2cc(OC)c(OC)c(OC)c2)CCc2cnoc2-3)cc1N ?
Reply text: active

Inquiry: Recorded call for CC1=CCC[C@H]2[C@](C)(CC3=CC(=O)C(Sc4ccccc4)=CC3=O)[C@@H](C)CC[C@]12C ?
Reply text: inactive

Inquiry: Recorded call for Nc1c(C(=O)N/N=C/c2ccc(-c3cc(Cl)c(Cl)cc3Cl)o2)cnn1-c1ccnc2c(C(F)(F)F)cccc12 ?
Reply text: inactive

Inquiry: Recorded call for Fc1ccc2c(c1)C1=C(CO2)C(c2ccc(Cl)cc2)NC(=S)N1 (centres undefined) ?
Reply text: inactive

Inquiry: Recorded call for CC1(C)CC([P+](c2ccccc2)(c2ccccc2)c2ccccc2)=NN1 ?
Reply text: inactive

====

Provide the recorded TGI for the entries that follow.
Test system: MDA-MB-231 breast
assay_info: NCI tumour cell line growth inhibition, 48 h

Inquiry: Look up TGI for this molecule: COc1cc2c(cc1OC)[C@@](C)(C(O)C(O)C(C)(C)O)NCC2 (some centres undefined)
Reply text: > 100 µM

Inquiry: Look up TGI for this molecule: COc1c2ccsc2c(OC)c2ccsc12
Reply text: > 100 µM

Inquiry: Look up TGI for this molecule: Clc1ccc(CNc2nccc(-c3cnn4ncccc34)n2)cc1
Reply text: > 25 µM

Inquiry: Look up TGI for this molecule: CCc1ccc2nccc(NCCCN(C)C)c2c1[N+](=O)[O-]
Reply text: > 100 µM

====

Test system: 786-0 renal
assay_info: NCI tumour cell line growth inhibition, 48 h
Provide the recorded TGI for the entries that follow.

Inquiry: Look up TGI for this molecule: Cc1cc2oc(C)c(S(=O)(=O)NC(=O)Nc3ccc(Cl)cc3)c(=O)c2c(=O)o1
Reply text: > 100 µM

Inquiry: Look up TGI for this molecule: O=[N+]([O-])c1ccc([N+]2=NC(c3ccccc3)=NN(c3ccccc3)C2)cc1
Reply text: > 100 µM

Inquiry: Look up TGI for this molecule: N#CC[N+]1(Cc2ccccn2)CCCC1
Reply text: > 100 µM

====

Test system: HCT-15 colon
assay_info: NCI tumour cell line growth inhibition, 48 h
measured_parameter: TGI

Inquiry: Look up TGI for this molecule: O=[N+]([O-])c1cccc(Cl)c1Oc1ccc(S(=O)(=O)/N=C(\NO)Nc2ccc(Cl)cc2)cc1
Reply text: 33.8 µM

Inquiry: Look up TGI for this molecule: O=C1CS[C@@](CC(c2ccc(Cl)cc2)c2ccc(Cl)cc2)(c2ccc(Cl)cc2)N1
Reply text: > 100 µM

Inquiry: Look up TGI for this molecule: COC(=O)C1=CON2C3CC4CC(C3)CC(C4)C12C (centres undefined)
Reply text: > 100 µM

Inquiry: Look up TGI for this molecule: OCC(CCc1c[nH]c2ccccc12)c1c[nH]c2ccccc12 (centres undefined)
Reply text: 32.2 µM

Inquiry: Look up TGI for this molecule: COC(=O)[C@]12CC[C@@H](C)[C@H](C)[C@@H]1C1=CC[C@@H]3[C@@]4(C)C(C=O)=C[C@@](C)(COS(C)(=O)=O)C4[C@H](O)C[C@@]3(C)[C@]1(C)CC2 (some centres undefined)
Reply text: 2.87 µM

Inquiry: Look up TGI for this molecule: CCN(CC)CCOc1ccc(C(O)(Cc2ccc(OC)cc2)c2ccccc2)cc1 (centres undefined)
Reply text: 51 µM

Inquiry: Look up TGI for this molecule: CNC1=C(C(=O)OC)SC(c2ccccc2)(c2ccccc2)SC1
Reply text: > 100 µM

Inquiry: Look up TGI for this molecule: Clc1ccc(CNc2nccc(-c3cnn4ncccc34)n2)cc1
Reply text: > 25 µM

Inquiry: Look up TGI for this molecule: Cc1cc(N(CCC#N)CCC#N)ccc1/C=C1\SC(=S)NC1=O
Reply text: > 100 µM

====

Provide the recorded TGI for the entries that follow.
Tested on: NCI-H226 lung
assay_info: NCI tumour cell line growth inhibition, 48 h

Inquiry: Give recorded TGI with NCI-H226 lung for the following compound: C=Cc1nc(C#N)c(N)o1
Reply text: > 100 µM

Inquiry: Give recorded TGI with NCI-H226 lung for the following compound: COc1cccc(N=N/C(=N\NC(=O)c2cc(Br)ccc2O)c2ccc(N(CCC#N)CCC#N)cc2OC)c1
Reply text: 79.7 µg/mL

Inquiry: Give recorded TGI with NCI-H226 lung for the following compound: CC(=O)OC1CCC2C(=CCC3C2(C)C(=O)CC2(C)C(C4(C)OC(C(C)C)=CC4=O)C(O)CC32C)C1(C)C (stereo unspecified)
Reply text: > 100 µM

Inquiry: Give recorded TGI with NCI-H226 lung for the following compound: O=C(NC1C2CC3CC(C2)CC1C3)/C(Cl)=C1/Sc2ccccc2NC1=O (stereo unspecified)
Reply text: > 100 µM

Inquiry: Give recorded TGI with NCI-H226 lung for the following compound: CCOC(=O)C1=C(Nc2ccc(Br)cc2)OC/C1=N\NC(=O)c1ccccc1O
Reply text: > 84 µM

Inquiry: Give recorded TGI with NCI-H226 lung for the following compound: COc1ccccc1C1(C)SCc2nc3ccccc3n21 (stereo unspecified)
Reply text: > 10 µM

====

Test system: OVCAR-5 ovarian
assay_info: NCI tumour cell line growth inhibition, 48 h
Provide the recorded GI50 for the entries that follow.

Inquiry: Give recorded GI50 with OVCAR-5 ovarian for the following compound: Clc1ccc(C2CC(c3cccc(Nc4ccncc4)c3)=NN2c2cc(Cl)cc(Cl)c2)cc1 (configuration not stated)
Reply text: 1.78 µM

Inquiry: Give recorded GI50 with OVCAR-5 ovarian for the following compound: COc1cc2c3c(n(CCCBr)c(=O)c2cc1OC)-c1ccc(F)cc1C3=O
Reply text: 50 µM

Inquiry: Give recorded GI50 with OVCAR-5 ovarian for the following compound: CCC1(NC(=O)c2cc(F)c(F)c(F)c2F)C(=O)NC(=O)N(C(C)C)C1=O (configuration not stated)
Reply text: > 100 µM

Inquiry: Give recorded GI50 with OVCAR-5 ovarian for the following compound: COc1cc(F)c(/C=C/c2cc(/C=C/c3cc(OC)c(OC)cc3F)n(-c3cc(F)cc(F)c3)n2)cc1OC
Reply text: 2.96 µM

Inquiry: Give recorded GI50 with OVCAR-5 ovarian for the following compound: N#C/C(=C\c1c(-c2ccccc2)[nH]c2ccccc12)C(=O)c1ccccc1
Reply text: > 100 µM

Inquiry: Give recorded GI50 with OVCAR-5 ovarian for the following compound: CSc1ccc(SC2c3ccc(C)cc3Oc3nc(N)c(C#N)c(N)c32)cc1 (configuration not stated)
Reply text: 1.71 µM

Inquiry: Give recorded GI50 with OVCAR-5 ovarian for the following compound: COc1c(Cl)ccc2c(-c3nc4cc(Cl)c(F)cc4s3)cc(=O)oc12
Reply text: 15.3 µM

====

Provide the recorded TGI for the entries that follow.
Test system: SK-MEL-5 melanoma
assay_info: NCI tumour cell line growth inhibition, 48 h

Inquiry: Give recorded TGI with SK-MEL-5 melanoma for the following molecule: CCCC(=O)NC(Nc1ccc(F)cc1)(C(F)(F)F)C(F)(F)F
Reply text: > 100 µM

Inquiry: Give recorded TGI with SK-MEL-5 melanoma for the following molecule: N#Cc1ccc(Oc2cccc(Oc3ccccc3)c2)cc1C#N
Reply text: > 100 µM

Inquiry: Give recorded TGI with SK-MEL-5 melanoma for the following molecule: CCOC(=O)C(=CN1CCNC1=S)C(=O)OCC
Reply text: > 100 µM

Inquiry: Give recorded TGI with SK-MEL-5 melanoma for the following molecule: COc1ccc2[nH]c(C(=O)N3CC(CCl)c4c3cc(N)c3ccccc43)cc2c1 (stereo not given)
Reply text: < 0.0112 µM

Inquiry: Give recorded TGI with SK-MEL-5 melanoma for the following molecule: COC1(c2cccs2)c2ccccc2C(OC)(c2cccs2)c2ccccc21 (stereo not given)
Reply text: > 100 µM

Inquiry: Give recorded TGI with SK-MEL-5 melanoma for the following molecule: O=C(C(Cl)=C(N1CCCCC1)N1CCCCC1)C(Cl)Cl
Reply text: > 100 µM

Inquiry: Give recorded TGI with SK-MEL-5 melanoma for the following molecule: CC12ON(P(=O)(c3ccccc3)c3ccccc3)C(C)(c3ccccc31)c1ccccc12
Reply text: > 100 µM

Inquiry: Give recorded TGI with SK-MEL-5 melanoma for the following molecule: COc1cccc(N=N/C(=N\NC(=O)c2cc(Br)ccc2O)c2ccc(N(CCC#N)CCC#N)cc2OC)c1
Reply text: 97.1 µg/mL

Inquiry: Give recorded TGI with SK-MEL-5 melanoma for the following molecule: Cc1cc(N(CCCNc2ccnc3cc(Cl)ccc23)Cc2ccc3c(c2)OCO3)nc(N2CCCCC2)n1
Reply text: 3.14 µM

Inquiry: Give recorded TGI with SK-MEL-5 melanoma for the following molecule: S=c1sc2cscc2s1
Reply text: 70.6 µM

Inquiry: Give recorded TGI with SK-MEL-5 melanoma for the following molecule: COc1ccc(C2SCC(=O)N2NC(=O)C(C)Oc2ccccc2C)cc1 (stereo not given)
Reply text: > 100 µM

Inquiry: Give recorded TGI with SK-MEL-5 melanoma for the following molecule: Nc1nc(=O)n(C2OC(CO)C(O)C2O)c2ncc(-c3ccc(-c4ccccc4)cc3)nc12 (stereo not given)
Reply text: > 100 µM

Inquiry: Give recorded TGI with SK-MEL-5 melanoma for the following molecule: Cc1cc2oc(C)c(S(=O)(=O)NC(=O)Nc3ccc(Cl)cc3)c(=O)c2c(=O)o1
Reply text: > 100 µM

Inquiry: Give recorded TGI with SK-MEL-5 melanoma for the following molecule: CCCCn1c2ccccc2c2ccc3c(c21)C(=O)C=CC3=O
Reply text: > 100 µM

Inquiry: Give recorded TGI with SK-MEL-5 melanoma for the following molecule: CC(=O)[O-].[Zn].c1ccc(/C(=N\Nc2ccccn2)c2ccccn2)cc1
Reply text: 1.59 µM

Hey, just so you know, these numbers are from PubChem BioAssay (NCI).
